B1: RIT1 (parent)
chain: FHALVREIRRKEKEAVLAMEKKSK

variants of: B1; test: protein stability index of a GFP-peptide fusion (GPS, HEK-293T) (PSI 1-6); higher = more stable; conditions: c terminus: a fixed tail appended;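 note: lentivirally expressed fusions sorted by FACS into six bins by GFP to DsRed ratio, PSI derived from sequencing read proportions per bin multiplied by bin number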
Think of 2 as a floor: if protein stability index stands on it or above, it is rule met; beneath it, rule not met.

>  <sequenceVariant>
E20K

>  <label>
rule met

$$$$
>  <sequenceVariant>
I8P

>  <label>
rule met

$$$$
>  <sequenceVariant>
V16K

>  <label>
rule not met

$$$$
>  <sequenceVariant>
A15L

>  <label>
rule not met

$$$$
>  <sequenceVariant>
E12D

>  <label>
rule met

$$$$
>  <sequenceVariant>
K13L

>  <label>
rule met

$$$$
>  <sequenceVariant>
L4E

>  <label>
rule met

$$$$
